Each item that follows carries a reported pIC50.
- Test System: unphosphorylated c-KIT kinase (uKIT, Seq. ID no. 2) (Homo sapiens)
- Sequence (P10721 with tags, fused parts or gaps): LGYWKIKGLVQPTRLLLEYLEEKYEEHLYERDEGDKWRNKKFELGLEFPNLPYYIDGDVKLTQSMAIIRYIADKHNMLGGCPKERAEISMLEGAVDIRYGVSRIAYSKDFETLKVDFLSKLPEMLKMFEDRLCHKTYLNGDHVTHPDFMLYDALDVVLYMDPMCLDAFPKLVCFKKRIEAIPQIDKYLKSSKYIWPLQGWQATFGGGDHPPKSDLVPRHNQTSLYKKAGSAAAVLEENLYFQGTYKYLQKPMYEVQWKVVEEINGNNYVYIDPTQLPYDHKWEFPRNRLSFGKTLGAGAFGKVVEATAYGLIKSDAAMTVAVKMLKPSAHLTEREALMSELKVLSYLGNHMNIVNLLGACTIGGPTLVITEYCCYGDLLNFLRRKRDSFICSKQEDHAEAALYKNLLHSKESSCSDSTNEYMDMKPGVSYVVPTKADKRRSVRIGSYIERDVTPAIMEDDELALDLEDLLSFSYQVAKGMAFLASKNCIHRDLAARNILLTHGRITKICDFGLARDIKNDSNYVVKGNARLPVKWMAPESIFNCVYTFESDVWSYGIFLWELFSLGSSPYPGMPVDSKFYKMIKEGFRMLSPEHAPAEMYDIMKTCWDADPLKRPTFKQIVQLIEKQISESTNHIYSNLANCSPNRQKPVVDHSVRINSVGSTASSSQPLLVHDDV
- Test Details: biochemical
- Measurement Conditions: uKIT, enzymatic assay, ATP 2000 μM
pIC50: −log10 of the molar value.

Take a look at these entries with their results.
INSERT INTO measurements (compound, measured_result) VALUES
  ('Cc1nc(NC(=O)NC(=O)C2(C)CCC2)ccc1Oc1ccnc(-c2cnn(C)c2)c1', '6.00 to 7.00'),
  ('Cn1cc(-c2cc(Oc3ccc(NC(=O)NC(=O)C4(C)CCC4)nc3)ccn2)cn1', '6.00 to 7.00');

Please look up its pIC50: Cc1cc(-c2cc(Oc3ccc(NC(=O)NC(=O)C4CCOC4)nc3)ccn2)ccn1 (centres unmarked)
< 6.00

Field entry: `Cc1nc(NC(=O)NC(=O)C(C)(C)C(F)(F)F)ccc1Oc1ccnc(-c2cnn(C)c2)c1`
6.00 to 7.00

Field entry: `CCc1nc(NC(=O)NC(=O)C2(OC)CC2)ccc1Oc1ccnc(-c2cnn(C)c2)c1`
< 6.00

Field entry: `COC(C)(C)C(=O)NC(=O)Nc1ccc(Oc2ccnc(-c3cnc(C)o3)c2)cn1`
< 6.00

Field entry: `Cc1nc(NC(=O)NC(=O)C23CC4CC(CC(C4)C2)C3)ccc1Oc1ccnc(-c2cnn(C)c2)c1`
7.00 to 8.00

Field entry: `Cc1nc(NC(=O)NC(=O)C(C)(C)C#N)ccc1Oc1ccnc(-c2cnn(C)c2)c1`
< 6.00

----------
Each item that follows carries a reported pIC50.
- Test System: unphosphorylated c-FMS kinase (uFMS, Seq. ID no. 1) (Homo sapiens)
- Sequence (P07333 538-972): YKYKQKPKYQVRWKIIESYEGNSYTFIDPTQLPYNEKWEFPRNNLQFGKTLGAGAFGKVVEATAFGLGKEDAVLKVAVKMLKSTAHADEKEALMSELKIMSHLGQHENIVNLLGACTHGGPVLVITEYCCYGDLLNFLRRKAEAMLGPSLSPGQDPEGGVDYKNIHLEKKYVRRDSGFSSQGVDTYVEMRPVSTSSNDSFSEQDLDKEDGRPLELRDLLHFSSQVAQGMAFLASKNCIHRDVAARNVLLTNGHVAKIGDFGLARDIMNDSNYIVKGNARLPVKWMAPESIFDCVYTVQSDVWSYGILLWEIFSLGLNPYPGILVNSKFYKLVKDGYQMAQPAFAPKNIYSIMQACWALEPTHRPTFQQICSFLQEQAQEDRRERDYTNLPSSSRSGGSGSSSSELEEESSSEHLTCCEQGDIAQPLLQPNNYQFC
- Test Details: biochemical
- Measurement Conditions: uFMS, enzymatic assay, ATP 500 μM
pIC50: −log10 of the molar value.

Take a look at these entries with their results.
INSERT INTO results (compound, measured_result) VALUES
  ('Cn1cc(-c2cc(Oc3ccc(NC(=O)NC(=O)C4CCCC4)nc3)ccn2)cn1', '> 8.00'),
  ('Cn1cc(-c2cc(Oc3ccc(NC(=O)NC(=O)CCC4(C(F)(F)F)CC4)nc3)ccn2)cn1', '> 8.00'),
  ('COC(C)(C)C(=O)NC(=O)Nc1ccc(Oc2ccnc(-c3ccnc(C)c3)c2)cn1', '> 8.00');

Please look up its pIC50: `Cc1cn(-c2cc(Oc3ccc(NC(=O)NC(=O)C4(C)CCOCC4)nc3)ccn2)cn1`
7.00 to 8.00

Field entry: `Cc1ncc(-c2cc(Oc3ccc(NC(=O)NC(=O)C4CCOCC4)nc3C)ccn2)s1`
7.00 to 8.00

----------
Each item that follows carries a reported IC50.
- System: M-NFS-60 cells
- Test Details: cells
- Measurement Conditions: 67 h, read-out: M-NFS-60 cell proliferation

Take a look at these entries with their results.
INSERT INTO results (compound, measured_result) VALUES
  ('CCC(=O)NC(=O)Nc1ccc(Oc2ccnc(-c3cn(C)cn3)c2)cn1', '100 to 1000 nM'),
  ('Cc1nc(NC(=O)NC(=O)C(C)(C)C#N)ccc1Oc1ccnc(-c2cnn(C)c2)c1', '100 to 1000 nM'),
  ('Cc1nc(NC(=O)NC(=O)C2(C(F)(F)F)CC2)ccc1Oc1ccnc(-c2cnn(C)c2)c1', '10 to 100 nM'),
  ('COC(C)(C)C(=O)NC(=O)Nc1ccc(Oc2ccnc(-n3cnc(C)c3)c2)cn1', '10 to 100 nM'),
  ('Cn1cc(-c2cc(Oc3ccc(NC(=O)NC(=O)C4CC4)nc3)ccn2)cn1', '10 to 100 nM');

Please look up its IC50: `Cn1cc(-c2cc(Oc3ccc(NC(=O)NC(=O)C4CC5(CCC5)C4)nc3)ccn2)cn1`
< 10 nM

Field entry: `COC(C)(C)C(=O)NC(=O)Nc1ccc(Oc2ccnc(-c3cn(C)cn3)c2)cn1`
10 to 100 nM

Field entry: `Cc1ncc(-c2cc(Oc3ccc(NC(=O)NC(=O)C4(C)CCOCC4)nc3)ccn2)s1`
10 to 100 nM

Field entry: `CCc1nc(NC(=O)NC(=O)C2(C)CCOCC2)ccc1Oc1ccnc(-c2cnn(C)c2)c1`
100 to 1000 nM

Field entry: `Cc1nc(NC(=O)NC(=O)C(C)(C)C)ccc1Oc1ccnc(-c2ccc(C#N)nc2)c1`
100 to 1000 nM

Field entry: `COC1(C(=O)NC(=O)Nc2ccc(Oc3ccnc(-c4cnc(C)s4)c3)c(C)n2)CC1`
100 to 1000 nM

Field entry: `Cn1cc(-c2cc(Oc3ccc(NC(=O)NC(=O)C(C)(C)C)nc3)ccn2)cn1`
< 10 nM

Field entry: `Cn1cc(-c2cc(Oc3ccc(NC(=O)NC(=O)[C@H]4C[C@](C)(F)C4)nc3)ccn2)cn1`
< 10 nM

----------
- Test System: unphosphorylated c-FMS kinase (uFMS, Seq. ID no. 1) (Homo sapiens)
- Test Details: biochemical
- Measurement Conditions: uFMS, enzymatic assay, ATP 500 μM
pIC50: −log10 of the molar value.
Property: pIC50

INSERT INTO measurements (compound, test_system, measured_result) VALUES
  ('COC1(C(=O)NC(=O)Nc2ccc(Oc3ccnc(-c4ccc(C)nc4)c3)cn2)CC1', 'unphosphorylated c-FMS kinase (uFMS, Seq. ID no. 1) (Homo sapiens)', '> 8.00'),
  ('Cc1cc(NC(=O)NC(=O)C(C)(C)C)ncc1Oc1ccnc(-c2cnn(C)c2)c1', 'unphosphorylated c-FMS kinase (uFMS, Seq. ID no. 1) (Homo sapiens)', '> 8.00'),
  ('CNc1ccc(-c2cc(Oc3ccc(NC(=O)NC(=O)C(C)(C)C)nc3)ccn2)cn1', 'unphosphorylated c-FMS kinase (uFMS, Seq. ID no. 1) (Homo sapiens)', '> 8.00'),
  ('Cc1cc(NC(=O)NC(=O)C2CCOCC2)nc(C)c1Oc1ccnc(-c2cnn(C)c2)c1', 'unphosphorylated c-FMS kinase (uFMS, Seq. ID no. 1) (Homo sapiens)', '> 8.00');

Please look up its pIC50: `Cn1cnc(-c2cc(Oc3ccc(NC(=O)NC(=O)C(C)(C)C)nc3)ccn2)c1`
> 8.00

Field entry: `CN1CCN(CC(=O)NC(=O)Nc2ccc(Oc3ccnc(-c4cnn(C)c4)c3)cn2)CC1`
7.00 to 8.00

Field entry: `Cc1ccc(-c2cc(Oc3ccc(NC(=O)NC(=O)C4CCOCC4)nc3)ccn2)cn1`
7.00 to 8.00

Field entry: `CC(C)c1nc(-c2cc(Oc3ccc(NC(=O)NC(=O)C(C)(C)C)nc3)ccn2)c[nH]1`
> 8.00

Field entry: `Cc1nc(NC(=O)NC(=O)C2(C(F)(F)F)CCC2)ccc1Oc1ccnc(-c2cnn(C)c2)c1`
> 8.00

Field entry: `COC1(C(=O)NC(=O)Nc2ccc(Oc3ccnc(-c4cnc(C)s4)c3)c(C)n2)CC1`
7.00 to 8.00

Field entry: `Cc1ncc(-c2cc(Oc3ccc(NC(=O)NC(=O)C4(C)CCOCC4)nc3)ccn2)s1`
7.00 to 8.00

Field entry: `Cn1cc(-c2cc(Oc3cnc(NC(=O)NC(=O)C(C)(C)C)nc3)ccn2)cn1`
7.00 to 8.00

Field entry: `COC(C)(C)C(=O)NC(=O)Nc1ccc(Oc2ccnc(-c3cn(C)cn3)c2)cn1`
> 8.00

Field entry: `Cc1nc(NC(=O)NC(=O)C(C)(C)C#N)ccc1Oc1ccnc(-c2cnn(C)c2)c1`
7.00 to 8.00

Field entry: `Cc1cn(-c2cc(Oc3ccc(NC(=O)NC(=O)C(C)C)nc3C)ccn2)cn1`
7.00 to 8.00

Field entry: `CC(C)(C)C(=O)NC(=O)Nc1ccc(Oc2ccnc(-c3cncs3)c2)cn1`
> 8.00

Field entry: Cc1cc(-c2cc(Oc3ccc(NC(=O)NC(=O)C4CCOC4)nc3)ccn2)ccn1 (stereo not drawn)
7.00 to 8.00

Field entry: `COC(C)(C)C(=O)NC(=O)Nc1ccc(Oc2ccnc(-n3cnc(C)c3)c2)cn1`
7.00 to 8.00

Field entry: `COC1(C(=O)NC(=O)Nc2ccc(Oc3ccnc(-c4cnc(C)s4)c3)cn2)CC1`
> 8.00

Field entry: `Cn1cc(-c2cc(Oc3ccc(NC(=O)NC(=O)C4CCCCC4)nc3)ccn2)cn1`
> 8.00

----------
- Test System: unphosphorylated PDGFRβ kinase (uPDGFRβ, Seq. ID No. 3) (Homo sapiens)
- Sequence (P09619 557-1106): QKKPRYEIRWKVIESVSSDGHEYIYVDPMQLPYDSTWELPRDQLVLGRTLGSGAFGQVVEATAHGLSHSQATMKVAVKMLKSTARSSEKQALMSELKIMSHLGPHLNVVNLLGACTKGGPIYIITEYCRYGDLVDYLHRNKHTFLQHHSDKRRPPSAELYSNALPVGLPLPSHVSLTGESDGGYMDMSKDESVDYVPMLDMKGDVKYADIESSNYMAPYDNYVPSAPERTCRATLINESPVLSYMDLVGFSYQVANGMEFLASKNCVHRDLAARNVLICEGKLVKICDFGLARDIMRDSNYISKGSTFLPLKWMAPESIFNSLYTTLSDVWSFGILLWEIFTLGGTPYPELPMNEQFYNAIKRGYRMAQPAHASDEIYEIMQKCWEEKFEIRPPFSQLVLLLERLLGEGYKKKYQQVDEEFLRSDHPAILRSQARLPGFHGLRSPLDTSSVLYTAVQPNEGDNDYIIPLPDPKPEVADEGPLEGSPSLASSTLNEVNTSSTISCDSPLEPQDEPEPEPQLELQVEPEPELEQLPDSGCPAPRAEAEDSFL
- Test Details: biochemical
- Measurement Conditions: uPDGFRb, enzymatic assay, ATP 500 μM
pIC50: −log10 of the molar value.
Property: pIC50

Take a look at these entries with their results.
INSERT INTO measurements (compound, test_system, measured_result) VALUES
  ('Cc1cc(NC(=O)NC(=O)C2(C)CCOCC2)nc(C)c1Oc1ccnc(-c2cnn(C)c2)c1 [Example 165]', 'unphosphorylated PDGFRβ kinase (uPDGFRβ, Seq. ID No. 3) (Homo sapiens)', '7.00 to 8.00'),
  ('Cc1cn(-c2cc(Oc3ccc(NC(=O)NC(=O)C4(C)CCOCC4)nc3)ccn2)cn1 [Example 157]', 'unphosphorylated PDGFRβ kinase (uPDGFRβ, Seq. ID No. 3) (Homo sapiens)', '6.00 to 7.00');

Please look up its pIC50: CC(C)(C)C(=O)NC(=O)Nc1ccc(Oc2ccnc(-c3ccc(N)nc3)c2)cn1 [Example 106]
< 6.00

Field entry: Cn1cc(-c2cc(Oc3ccc(NC(=O)NC(=O)C4(C)CCOCC4)nc3)ccn2)cn1 [Example 175]
6.00 to 7.00

Field entry: Cn1cc(-c2cc(Oc3cnc(NC(=O)NC(=O)C(C)(C)C)nc3)ccn2)cn1 [Example 174]
< 6.00

Field entry: Cc1cn(-c2cc(Oc3ccc(NC(=O)NC(=O)C(C)C)nc3C)ccn2)cn1 [Example 134]
< 6.00

Field entry: Cn1cc(-c2cc(Oc3ccc(NC(=O)NC(=O)C4CCOC4)nc3)ccn2)cn1 (centres unmarked) [Example 66]
< 6.00

Field entry: Cc1ccc(-c2cc(Oc3ccc(NC(=O)NC(=O)C4CCOCC4)nc3)ccn2)cn1 [Example 103]
6.00 to 7.00

Field entry: Cc1cc(-c2cc(Oc3ccc(NC(=O)NC(=O)C4CC(C)(C)C4)nc3C)ccn2)on1 [Example 14]
6.00 to 7.00

Field entry: Cc1cc(-c2cc(Oc3ccc(NC(=O)NC(=O)C(C)(C)C)nc3C)ccn2)ccn1 [Example 56]
< 6.00

Field entry: CC(C)(C)C(=O)NC(=O)Nc1ccc(Oc2ccnc(-c3cncs3)c2)cn1 [Example 125]
< 6.00

Field entry: Cc1cc(NC(=O)NC(=O)C(C)(C)C)ncc1Oc1ccnc(-c2cnn(C)c2)c1 [Example 84]
6.00 to 7.00

Field entry: Cn1cc(-c2cc(Oc3ccc(NC(=O)NC(=O)C4(C(F)(F)F)CCC4)nc3)ccn2)cn1 [Example 101]
> 8.00

Field entry: Cc1cn(-c2cc(Oc3cnc(NC(=O)NC(=O)C(C)(C)C)cc3C)ccn2)cn1 [Example 148]
< 6.00

Field entry: Cn1cc(-c2cc(Oc3ccc(NC(=O)NC(=O)[C@H]4C[C@](C)(F)C4)nc3)ccn2)cn1 [Example 1]
7.00 to 8.00

Field entry: Cc1nc(NC(=O)NC(=O)C(C)(C)C)ccc1Oc1ccnc(-c2ccc(C#N)nc2)c1 [Example 107]
< 6.00

Field entry: Cc1nc(NC(=O)NC(=O)C2(C#N)CC2)ccc1Oc1ccnc(-c2cnn(C)c2)c1 [Example 28]
< 6.00
